biological target: XIAP-BIR3 (Homo sapiens (Human), UniProt P98170); assay: Fluorescence polarization (FP) assay, inhibition of SMAC peptide binding
Sequence (P98170 241-356): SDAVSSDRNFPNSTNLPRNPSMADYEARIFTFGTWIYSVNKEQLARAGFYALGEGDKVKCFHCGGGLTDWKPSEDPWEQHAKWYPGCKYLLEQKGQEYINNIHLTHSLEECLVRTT
pKi: −log10 of the molar value. Counter-ions that a name gives are not always drawn.

compound: CN[C@@H](C)C(=O)N[C@H]1CCOC2CC3(CC=CC3)C(C(=O)N[C@@H]3CCCc4ccccc43)N2C1=O (stereo partly drawn) [Compound 81, hydrochloride]
pKi: 7.00 to 8.00

compound: CN[C@@H](C)C(=O)N[C@H]1CCS[C@H]2CC(C)(C)C(C(=O)N[C@@H]3CCCc4ccccc43)N2C1=O (stereo partly drawn) [Compound A, hydrochloride]
pKi: 7.00 to 8.00

compound: CN[C@@H](C)C(=O)N[C@H]1CCOC2CC3(CCCC3)C(C(=O)N[C@@H]3CCCc4ccccc43)N2C1=O (stereo partly drawn) [Compound 82, hydrochloride]
pKi: 7.00 to 8.00

compound: CN[C@@H](C)C(=O)N[C@@H]1C(=O)N2[C@H](CC(C)(C)[C@H]2C(=O)N[C@@H]2CCCc3ccccc32)OC2CCCCC21 (single isomer, unassigned) [Compound 65, hydrochloride]
pKi: 7.00 to 8.00

compound: CCC1(CC)C[C@@H]2SCC[C@H](NC(=O)[C@H](C)NC)C(=O)N2C1C(=O)N[C@@H]1CCCc2ccccc21 (mixture of isomers) [Compound 38, hydrochloride]
pKi: < 7.00

compound: CN[C@@H](C)C(=O)N[C@H]1CCS[C@H]2CC3(CCCC3)[C@@H](C(=O)N[C@@H]3CCCc4ccccc43)N2C1=O [Compound 80, hydrochloride]
pKi: 7.00 to 8.00

The measured values listed here are drawn from patent US20230295181A1.
